Source of measurements: ChEMBL document CHEMBL1150399

- Tested system: UniProtKB P00489
- Sequence (P00489 whole entry): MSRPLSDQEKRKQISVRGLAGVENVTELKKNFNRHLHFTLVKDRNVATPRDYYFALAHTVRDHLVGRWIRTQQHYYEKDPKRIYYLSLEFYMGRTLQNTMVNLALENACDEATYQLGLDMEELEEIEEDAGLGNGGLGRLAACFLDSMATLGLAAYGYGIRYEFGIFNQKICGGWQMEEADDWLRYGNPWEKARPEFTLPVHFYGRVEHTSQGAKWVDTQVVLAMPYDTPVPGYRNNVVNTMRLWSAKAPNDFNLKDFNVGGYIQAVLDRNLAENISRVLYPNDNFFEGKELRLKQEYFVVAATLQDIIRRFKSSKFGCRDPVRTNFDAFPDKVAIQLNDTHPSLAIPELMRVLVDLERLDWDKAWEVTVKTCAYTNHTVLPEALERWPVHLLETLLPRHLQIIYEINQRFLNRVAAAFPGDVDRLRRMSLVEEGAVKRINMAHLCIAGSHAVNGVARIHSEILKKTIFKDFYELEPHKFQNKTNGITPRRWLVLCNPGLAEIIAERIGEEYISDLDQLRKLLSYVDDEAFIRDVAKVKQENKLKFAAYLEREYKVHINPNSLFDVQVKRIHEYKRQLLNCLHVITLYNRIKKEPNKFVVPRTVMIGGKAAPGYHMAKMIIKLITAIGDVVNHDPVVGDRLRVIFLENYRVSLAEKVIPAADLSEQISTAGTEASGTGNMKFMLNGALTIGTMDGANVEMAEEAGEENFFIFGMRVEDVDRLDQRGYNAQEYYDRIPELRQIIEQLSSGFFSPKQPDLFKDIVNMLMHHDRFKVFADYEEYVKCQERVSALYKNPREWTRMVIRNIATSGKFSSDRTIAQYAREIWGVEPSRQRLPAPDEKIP
Measurement kind: pIC50
Expect pIC50 as a plain number equal to -log10 of the molar concentration.

Entry under test: CCCCCSC(=O)c1c(C(=O)O)ccc2c1C(=O)CCC2 . Its pIC50 was 2.89
